Here, each record is paired with measured binding signal data.
# measured_on: Hsp53 (Homo sapiens, UniProt P04637 1-393)
# Sequence (P04637 whole entry): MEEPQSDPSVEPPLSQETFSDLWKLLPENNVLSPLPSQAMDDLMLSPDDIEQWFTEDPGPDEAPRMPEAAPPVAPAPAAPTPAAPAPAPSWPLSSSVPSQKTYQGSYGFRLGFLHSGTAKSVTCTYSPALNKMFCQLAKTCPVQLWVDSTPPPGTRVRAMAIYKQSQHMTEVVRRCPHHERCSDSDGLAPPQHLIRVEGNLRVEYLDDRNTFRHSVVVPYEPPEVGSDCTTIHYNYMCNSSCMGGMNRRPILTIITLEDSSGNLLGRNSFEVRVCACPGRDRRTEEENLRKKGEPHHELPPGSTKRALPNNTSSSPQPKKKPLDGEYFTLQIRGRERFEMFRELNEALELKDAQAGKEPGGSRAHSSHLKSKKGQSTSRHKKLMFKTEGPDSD
# assay_explanation: anisotropy competition; 25 mM NaPi, 225 mM NaCl, 10% v/v glycerol, 5 mM DTT, 0.2 mg/mL BSA, 22°C; 20 nM labelled DNA; pH not stated for the binding assay
# measurement_parameters: protein: recombinant; tags: N-terminal 6xHis-lipoyl-TEV tag, cleaved; chain copies: 4

>>> test_result("G2C (dsDNA) DNA 1: CGCGCACATGTCCGGACATGTCCCGC DNA 2: GCGGGACATGTCCGGACATGTGCGCG")
"0.37 ΔlogKd vs ref"
>>> test_result("A5C (dsDNA) DNA 1: CGCGGACCTGTCCGGACATGTCCCGC DNA 2: GCGGGACATGTCCGGACAGGTCCGCG")
"0.45 ΔlogKd vs ref"
>>> test_result("A3C (dsDNA) DNA 1: CGCGGCCATGTCCGGACATGTCCCGC DNA 2: GCGGGACATGTCCGGACATGGCCGCG")
"0.66 ΔlogKd vs ref"
>>> test_result("G7C (dsDNA) DNA 1: CGCGGACATCTCCGGACATGTCCCGC DNA 2: GCGGGACATGTCCGGAGATGTCCGCG")
"0.9 ΔlogKd vs ref"

Consider now this further binder.
Looking up T6C (dsDNA) DNA 1: CGCGGACACGTCCGGACATGTCCCGC DNA 2: GCGGGACATGTCCGGACGTGTCCGCG , I found its binding signal recorded as 0.53 ΔlogKd vs ref

Where do these numbers come from? They come from paper PMC2807882.
